- system: T1, EsCas13d, nuclease-dead (Eubacterium siraeum, UniProt B0MS50, R295A;H300A;R849A;H854A)
- T1 sequence: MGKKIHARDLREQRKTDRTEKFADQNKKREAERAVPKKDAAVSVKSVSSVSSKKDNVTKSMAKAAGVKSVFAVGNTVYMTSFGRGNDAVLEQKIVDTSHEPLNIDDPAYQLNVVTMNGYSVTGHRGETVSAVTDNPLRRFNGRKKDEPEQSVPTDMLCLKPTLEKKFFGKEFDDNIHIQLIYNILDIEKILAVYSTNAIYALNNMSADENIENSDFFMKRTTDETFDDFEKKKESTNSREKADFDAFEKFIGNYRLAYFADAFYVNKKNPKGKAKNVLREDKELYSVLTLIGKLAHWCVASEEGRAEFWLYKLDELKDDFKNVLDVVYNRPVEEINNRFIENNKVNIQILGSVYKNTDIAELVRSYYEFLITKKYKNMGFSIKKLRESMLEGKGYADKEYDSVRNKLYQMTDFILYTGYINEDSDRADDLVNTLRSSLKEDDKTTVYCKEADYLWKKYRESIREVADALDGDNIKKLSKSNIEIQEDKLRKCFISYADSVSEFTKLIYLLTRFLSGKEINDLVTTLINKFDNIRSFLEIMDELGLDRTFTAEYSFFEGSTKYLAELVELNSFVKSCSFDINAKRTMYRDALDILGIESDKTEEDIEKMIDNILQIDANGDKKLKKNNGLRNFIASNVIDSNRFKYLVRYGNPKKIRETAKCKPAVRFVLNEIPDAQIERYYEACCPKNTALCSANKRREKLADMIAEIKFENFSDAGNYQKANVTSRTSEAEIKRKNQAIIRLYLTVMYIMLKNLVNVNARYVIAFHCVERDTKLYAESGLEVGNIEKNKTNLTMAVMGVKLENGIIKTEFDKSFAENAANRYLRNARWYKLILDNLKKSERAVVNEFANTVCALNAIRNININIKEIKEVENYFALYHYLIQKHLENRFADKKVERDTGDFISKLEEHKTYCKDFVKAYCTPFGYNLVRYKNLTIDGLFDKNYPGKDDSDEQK
- protocol_notes: crRNA (strand 1, pre-loaded); Mg2+; 40 mM Tris-HCl pH 7.5, 150 mM NaCl, 6 mM MgCl2, 1 mM DTT, 0.1% Tween-20, 0.2 mg/ml BSA; 25 C; 10 min per concentration, then washed
- conditions: tags: His6-TwinStrep-SUMO cleaved; N-terminal SNAP kept (SNAP-Surface 488); label: 3' end held by stalled T7 RNA polymerase
observable: Kd (nM)
Quick note: give the figure in nM, leave out the unit.

[[record]]
binder = "target 1 MT 5'PFS AGA 3'PFS ACG (mixed) RNA 1: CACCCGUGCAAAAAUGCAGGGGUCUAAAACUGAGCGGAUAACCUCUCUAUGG RNA 2: GGGAAUGGAUCCACAUCUACGAAUUCAGACCAUAGAGAGGUUAUCCGCUCAACGAGAUCGGAAGAGCACACGU"
observable = "Kd"
measured_result = 29.5

[[record]]
binder = "target 3 G4A,U8C (mixed) RNA 1: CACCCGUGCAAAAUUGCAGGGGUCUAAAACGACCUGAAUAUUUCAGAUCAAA RNA 2: GGGAAUGGAUCCACAUCUACGAAUUCGUUUUUGAUCUGAAAUACUCAAGUCUGCAGAUCGGAAGAGCACACGU"
observable = "Kd"
measured_result = 52.8

[[record]]
binder = "target 1 insC 3' of 9,insU 3' of 6 (mixed) RNA 1: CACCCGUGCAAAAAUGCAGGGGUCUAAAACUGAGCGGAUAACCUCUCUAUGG RNA 2: GGGAAUGGAUCCACAUCUACGAAUUCGUACCAUAGAGAGGUUACUCCUGCUCACCGAGAUCGGAAGAGCACACGU"
observable = "Kd"
measured_result = 16.6

[[record]]
binder = "target 1 U8A (mixed) RNA 1: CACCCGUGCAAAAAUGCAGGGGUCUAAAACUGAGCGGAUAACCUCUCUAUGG RNA 2: GGGAAUGGAUCCACAUCUACGAAUUCGUACCAUAGAGAGGUUAACCGCUCACCGAGAUCGGAAGAGCACACGU"
observable = "Kd"
measured_result = 22.2


What measured Kd goes with target 3 insC 3' of 3,insU 3' of 3 (mixed) RNA 1: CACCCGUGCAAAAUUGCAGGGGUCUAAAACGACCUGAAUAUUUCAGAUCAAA RNA 2: GGGAAUGGAUCCACAUCUACGAAUUCGUUUUUGAUCUGAAAUAUUCAGGCUUCUGCAGAUCGGAAGAGCACACGU ? 17.9

Try target 1 U8G,C22U (mixed) RNA 1: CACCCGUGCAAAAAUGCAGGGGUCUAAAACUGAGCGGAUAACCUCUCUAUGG RNA 2: GGGAAUGGAUCCACAUCUACGAAUUCGUAUCAUAGAGAGGUUAGCCGCUCACCGAGAUCGGAAGAGCACACGU next. 29.7

Try target 1 MT 5'PFS GCU 3'PFS ACU (mixed) RNA 1: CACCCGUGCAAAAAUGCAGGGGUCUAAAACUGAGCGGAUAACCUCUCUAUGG RNA 2: GGGAAUGGAUCCACAUCUACGAAUUCGCUCCAUAGAGAGGUUAUCCGCUCAACUAGAUCGGAAGAGCACACGU next. 33

Try target 1 U8C,U11C (mixed) RNA 1: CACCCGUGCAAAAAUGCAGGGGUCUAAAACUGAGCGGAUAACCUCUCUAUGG RNA 2: GGGAAUGGAUCCACAUCUACGAAUUCGUACCAUAGAGAGGCUACCCGCUCACCGAGAUCGGAAGAGCACACGU next. 12.2
